- test.system: GST-PLK3 (Homo sapiens)
- Construct: purchased CarnaBio
- Sequence (Q9H4B4 whole entry): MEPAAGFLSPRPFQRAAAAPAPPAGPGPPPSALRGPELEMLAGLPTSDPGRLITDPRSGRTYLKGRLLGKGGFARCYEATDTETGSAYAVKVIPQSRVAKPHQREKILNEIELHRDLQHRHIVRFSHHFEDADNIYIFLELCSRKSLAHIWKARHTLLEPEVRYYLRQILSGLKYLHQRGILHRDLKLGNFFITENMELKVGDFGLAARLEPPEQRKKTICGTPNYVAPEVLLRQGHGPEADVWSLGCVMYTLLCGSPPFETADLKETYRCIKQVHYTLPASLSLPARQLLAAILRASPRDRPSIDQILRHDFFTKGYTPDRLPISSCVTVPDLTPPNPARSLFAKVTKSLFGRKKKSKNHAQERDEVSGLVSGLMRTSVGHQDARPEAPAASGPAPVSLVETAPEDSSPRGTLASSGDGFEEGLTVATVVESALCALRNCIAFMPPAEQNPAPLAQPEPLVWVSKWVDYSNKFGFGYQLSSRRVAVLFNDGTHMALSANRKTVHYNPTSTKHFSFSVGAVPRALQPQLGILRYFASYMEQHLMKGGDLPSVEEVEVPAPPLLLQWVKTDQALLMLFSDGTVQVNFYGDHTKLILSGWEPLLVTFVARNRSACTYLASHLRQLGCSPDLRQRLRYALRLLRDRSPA
- experiment.summary: PLK TR-FRET peptide assay, PLK3
- Format: biochemical
- condition.details: PLK TR-FRET peptide assay, GST-PLK3; read-out: Plk3 IC50
value.type: IC50

As a guide, the following entries are already answered.
// query // lookup IC50 for CC[C@@H]1C(=O)N(C)c2cnc(-n3ccnc3-c3cncnc3)nc2N1C(C)C [Example 149]
// result 10 to 50 µM

// query // lookup IC50 for CC[C@]12COCCN1c1nc(-c3cn[nH]c3-c3nccs3)ncc1N(C)C2=O [Example 345]
// result > 50 µM

// query // lookup IC50 for CC[C@]12COCCN1c1nc(-c3cnoc3-c3ccccc3)ncc1N(C)C2=O [Example 414]
// result > 50 µM

// query // lookup IC50 for CC[C@@H]1C(=O)N(C)c2cnc(-n3ncnc3-c3ccccc3)nc2N1C(C)C [Example 195]
// result < 1 µM

// query // lookup IC50 for CC[C@]12COCCN1c1nc(-c3cn[nH]c3-c3ccc(F)cc3F)ncc1N(C)C2=O [Example 412]
// result > 50 µM

// query // lookup IC50 for CC[C@@H]1C(=O)N(C)c2cnc(-n3ccnc3-c3cncnc3)nc2N1C1CCCC1 [Example 159]
// result 1 to 10 µM

// query // lookup IC50 for CC[C@@]12COCCN1c1nc(-c3cccnc3-c3ccccc3)ncc1N(C)C2=O [Example 403]
// result 1 to 10 µM

// query // lookup IC50 for CC[C@@H]1C(=O)N(C)c2cnc(-n3ccnc3-c3nccs3)nc2N1C1CCOC1 (some centres unmarked) [Example 221]
// result 10 to 50 µM

// query // lookup IC50 for CC[C@@]12COCCN1c1nc(-c3snnc3-c3ccc(F)cc3F)ncc1N(C)C2=O [Example 397]
// result 10 to 50 µM

// query // lookup IC50 for CC[C@@H]1C(=O)N(C)c2cnc(-c3ccncc3)nc2N1C1CCC1 [Example 109]
// result 10 to 50 µM

# input for lookup
// query // lookup IC50 for CC[C@@]12CCCN1c1nc(-n3ncnc3-c3ccccc3)ncc1N(C)C2=O [Example 189]
// result 1 to 10 µM
